B1: RTP4 (parent)
chain: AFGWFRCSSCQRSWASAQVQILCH

# Variants of: B1
# assay_details: protein stability index of a GFP-peptide fusion (GPS, HEK-293T) (PSI 1-6); higher = more stable;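 note: lentivirally expressed fusions sorted by FACS into six bins by GFP to DsRed ratio, PSI derived from sequencing read proportions per bin multiplied by bin number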
# protocol_conditions: c terminus: a fixed tail appended
Use 2 as the dividing line for protein stability index, with the line itself on the Y side and lower values as N.

Below, 6 variants whose answers are already recorded.
Q11G Y
S8V Y
V19G Y
I21N N
Q11R Y
I21Y Y

Prompt line: Hi, just wondering whether H24K shows protein stability index of 2 or higher.
Response line: N

Prompt line: Hi, just wondering whether Q11N shows protein stability index of 2 or higher.
Response line: Y
